FYI, the data here is from the supplement of paper PMC12764529.

# test.summary: folding stability dG unfold from trypsin proteolysis; higher = more stable
measured.metric: folding stability dG unfold
Reply with the number and its unit after it.

Inquiry: I am curious: what folding stability dG unfold value has been reported for SAGGSAGGDPNDKPMKFELIETFTIPGNLNEAKDFLEDLLPPNWAINVEQEPGMITITIYKMKDSAGGSAGG [r6_953_TrROS] ?
Reply text: 1.78 kcal/mol

Inquiry: Find the recorded folding stability dG unfold belonging to SAGGSMTLTEVSYEGDKVVTTTTTFTPGAPALTSSTTTTPIPPVPLGPRPVIFFEPVSEMRPLALVSAGGSA [r2_332_JUSTAS] and report it.
Reply text: 0.628 kcal/mol

Inquiry: So what's the measured folding stability dG unfold for this one? SAGGSAGGSAGGEIKVEVVPVDGKLRVKVTLEDGEKIEIEVPENTTLDELKKLAEELAKKSAGGSAGGSAGG [r7_265_TrROS_Hall]
Reply text: 1.55 kcal/mol

Inquiry: Given the entry SAGGKIPPGMKLEIEDINIEFYNNGWIKITVKMTIWAPDGKTMTMTMTIVIPIRPPPPPPNDPENNESAGGS [r8_90_TrROS] , report its measured folding stability dG unfold.
Reply text: 3.91 kcal/mol

###

# test.summary: folding stability dG unfold from chymotrypsin proteolysis; higher = more stable
Please map values of folding stability dG unfold to classes as shown: lower range: < 0.8 kcal/mol; middle range: ≥ 0.8 kcal/mol and < 3 kcal/mol; upper range: ≥ 3 kcal/mol

Inquiry: Into which category would you place GMTIVPPSSPVTDSSGNYEEYPDSQLYKDSSTGKPIIAFPMSPEELAAGDPAALARREALAKEYGLPEIEPS [r1_438_JUSTAS] ?
Reply text: lower range

Inquiry: # classify by folding stability dG unfold band: SAGGSAGGSAMKPGEVIEIEITDKETGKKIKAEIVLKDGKLYIKIYNENGELIAEIEIEIKDSAGGSAGGSA [r18_264_TrROS_Hall]
Reply text: upper range

Inquiry: Please classify: SAGGSAGGSAKKTLYKVKITKKNKNGEKIEIVVPKSEDEIKEEAKKKFGIDKIEIEPVELKSAGGSAGGSAG [r3_220_TrROS_Hall]
Reply text: lower range

Inquiry: GET /class?item= SAGGSAGGSMYVVRAVIRRPKAVPPPLAEEEIDIPVADREITAEEIARLFTPPGYELVRIEADSAGGSAGGS [r12_611_TrMRF]
Reply text: lower range

Inquiry: // bin(item) where item = SKPIPVKITIETKTNPNGEPITTITIDKGDKTYSLPLGNAKILEIDPEKQYIIIYNPETGSILILKPSDLSA [r9_1186_TrMRF]
Reply text: upper range

Inquiry: Into which bin does this sequence go? SAGGSAGGSMIDDIVEKLKIPPGTRIVFNDGEVKYFDNREDIKEWAKNGYPAEKLKNIVAFPESAGGSAGGS [r12_430_TrMRF]
Reply text: lower range

Inquiry: Could you tell me which band SAGGSAGGMLEIEFEKPLPNGETLKIKVFFDKDKPEALVEIENPSTNEKKFYNFTSIDEVIEKESAGGSAGG [r6_464_TrMRF] belongs to?
Reply text: middle range

Inquiry: Categorize the following entry: SAGKPKVKVETVTIEVDGKKIKIEVVELENGEKLVRVEVFDENGELVETKTVTLEELKKLLEKAGIEVSAGG [r19_90_TrROS_Hall]
Reply text: middle range

Inquiry: Lab log: SAGGSMAEPGPMNMTLSFDGIEKEFSVEITVRKRPDGTEVLELRLPDGVPLTLPAAEAAKIVDMSGSAGGSA [r2_297_JUSTAS] — assign folding stability dG unfold category
Reply text: middle range

Inquiry: Which class holds SAGGSAGGSAGSFVKGGTVYEIYKNPNTKKYTIVATPKNGKKYVFTFDSPEEAEKALKASSAGGSAGGSAGG [r11_238_TrMRF] ?
Reply text: middle range

Inquiry: Exam item: assign SAGGSAGGSAGMKVVVELEVTFDSEEEAEAVAKAIAEELGSEDVVVKVIRKPVELGPGLKSAGGSAGGSAGG [r17_285_JUSTAS] to the correct category.
Reply text: middle range
